Target: Human adrenergic α1B receptor (Homo sapiens, UniProt P35368)
Sequence (P35368 1-520): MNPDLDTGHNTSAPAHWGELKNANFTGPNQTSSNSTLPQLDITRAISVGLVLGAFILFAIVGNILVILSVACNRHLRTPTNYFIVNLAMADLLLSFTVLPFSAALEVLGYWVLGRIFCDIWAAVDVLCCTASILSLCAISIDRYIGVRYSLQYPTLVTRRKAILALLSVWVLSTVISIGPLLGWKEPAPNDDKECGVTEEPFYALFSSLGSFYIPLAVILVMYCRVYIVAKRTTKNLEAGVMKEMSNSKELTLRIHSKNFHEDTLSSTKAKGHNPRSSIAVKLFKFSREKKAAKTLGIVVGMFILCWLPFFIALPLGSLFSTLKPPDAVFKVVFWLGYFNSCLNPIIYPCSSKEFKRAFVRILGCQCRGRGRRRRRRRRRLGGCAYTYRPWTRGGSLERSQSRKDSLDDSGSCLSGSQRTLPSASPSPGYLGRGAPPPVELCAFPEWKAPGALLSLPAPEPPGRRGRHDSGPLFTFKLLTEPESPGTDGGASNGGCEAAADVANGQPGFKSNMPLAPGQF
Test: Radioligand binding, adrenergic α1B (Protocol Group B)
Parameters: purchased Milipore (Millipore)
Details: 0.3 μM compound; Protocol Group B; 0.3 µM
Experimental: To evaluate the activity of compounds in radioligand binding assays, Human adrenergic α1B receptor obtained from recombinant cell membrane from Milipore. Binding experiments were carried out in Tris-HCl buffer (50 mM Tris-HCl buffer, pH 7.4, 10 mM Mgcl2, 1 mM EDTA) as recommended by Milipore. […] Receptor proteins were harvested on 0.33% PEI(poly-ethylenemine) soaked GFC filter mat, the specifically bound [^3H]Prazosin were counted to determine total binding. […]
Percentage inhibition of ligand binding, Adrenergic α1B (0.3 μM) of 40% or higher: 1.0. Under 40%: 0.0.

Worked examples, 3 molecules total:
molecule	class-label
Cc1cc(F)c2c(c1)c1c(n2CC(C)(O)c2ccncc2)CC2CCCN2C1 (single isomer, unassigned) [62a]	1.0
Cc1cc(F)c2c(c1)c1c(n2CC(C)(O)c2ccncc2)CC2CCCN2C1 (single isomer, unassigned) [62d]	0.0
Cc1ccc2c(c1)c1c(n2CC(C)(O)c2ccc(N(C)C)nc2)CCN(C)C1 (single isomer, unassigned) [39b]	0.0

## Task Decide: is the reported value of Percentage inhibition of ligand binding, Adrenergic α1B (0.3 μM) for OC(Cn1c2c(c3cc(F)ccc31)C1CCCN1CC2)c1ccncc1 (centres unmarked) [compound 18] equal to or greater than 40%?
## Result 1.0

## Task Decide: is the reported value of Percentage inhibition of ligand binding, Adrenergic α1B (0.3 μM) for Cc1cc(F)cc2c3c(n(CC(C)(O)c4ccncc4)c12)CC1CCCN1C3 (single isomer, unassigned) [78d] equal to or greater than 40%?
## Result 0.0

## Task Decide: is the reported value of Percentage inhibition of ligand binding, Adrenergic α1B (0.3 μM) for CC(O)(Cn1c2c(c3cc(Cl)cc(F)c31)C1CCCN1CC2)c1cccnc1 (single isomer, unassigned) [53c] equal to or greater than 40%?
## Result 0.0

## Task Decide: is the reported value of Percentage inhibition of ligand binding, Adrenergic α1B (0.3 μM) for Cc1cc(F)c2c(c1)c1c(n2CC(C)(O)c2cccnc2)CCN2CCCC12 (single isomer, unassigned) [79d] equal to or greater than 40%?
## Result 0.0

## Task Decide: is the reported value of Percentage inhibition of ligand binding, Adrenergic α1B (0.3 μM) for Cc1cc(C)c2c(c1)c1c(n2CC(C)(O)c2ccncc2)CCN2CCCC12 (centres unmarked) [compound 19] equal to or greater than 40%?
## Result 1.0
